Data provenance: patent US20250339569A1

# Measurement target: human carbonic anhydrase 9 (CAIX) (human, UniProt Q16790 38-459)
# Measurement notes: FACS competition on HT-29 cells, competitor tracer 3BP-2776; category C = pIC50 6.1-7.0
Starred links: 1 amine or outer side, 2 acyl side, 3 side chain; linkers in the order of their positions; H or OH if unused. Positions of bridges follow the written chain, without caps; N, C: chain ends. Non-standard residues stand in square brackets, D forms with d. Primed or numbered codes have the meaning given here. *: point of attachment. Aph(2Thz) = 4-aminophenylalanine with 1,3-thiazole-2-carbonyl on the ring amine, O=C(Nc1ccc(C[C@H](N[*:1])C(=O)[*:2])cc1)c1nccs1; APAc″ = 2-(4-(amino)piperidin-1-yl)acetic acid, NC1CCN(CC(=O)*)CC1; DOTA = O=C(O)CN1CCN(CC(=O)O)CCN(CC(=O)*)CCN(CC(=O)O)CC1; Pyridine(3,5-bisCH2) = c1ncc(C[*:2])cc1C[*:1]; mXylylene = c1cc(C[*:1])cc(C[*:2])c1
Observed property: pIC50

>  <Binder>
{DOTA-APAc″}-VYCE[dP]DWLTWSC-NH2 (linker 3-12 via Pyridine(3,5-bisCH2)) [3BP-4141]

>  <Observed property>
pIC50

>  <Reported measurement>
6.1 to 7 pic50

$$$$
>  <Binder>
{DOTA-APAc″}-VYCE[dP]D[Aph(2Thz)]LTWSC-NH2 (linker 3-12 via mXylylene) [3BP-4180]

>  <Observed property>
pIC50

>  <Reported measurement>
6.1 to 7 pic50

$$$$
>  <Binder>
Ac-VYCE[dP]KWL[dD]WSC-NH2 (linker 3-12 via mXylylene; lactam 6-9; SMILES CC(=O)N[C@H](C(=O)N[C@@H](Cc1ccc(O)cc1)C(=O)N[C@H]1CSCc2cccc(c2)CSC[C@@H](C(N)=O)NC(=O)[C@H](CO)NC(=O)[C@H](Cc2c[nH]c3ccccc23)NC(=O)[C@H]2CC(=O)NCCCC[C@H](NC(=O)[C@H]3CCCN3C(=O)[C@H](CCC(=O)O)NC1=O)C(=O)N[C@@H](Cc1c[nH]c3ccccc13)C(=O)N[C@@H](CC(C)C)C(=O)N2)C(C)C) [3BP-4043]

>  <Observed property>
pIC50

>  <Reported measurement>
6.1 to 7 pic50

$$$$
